test: yeast display, Sf9 membrane polyspecificity reagent, FACS + sequencing; frameworks hold sequencing errors
Property label: polyreactivity (PSR sort gate)

A selection of reference data follows.
QVQLVESGGGLVQAGGSLRLSCAASGFTFGQYAMGWYRQAPGKERELVAAITGSGGRTYYADSVKGRFTISRDNAKNTVYLQMNSLKPEDTAVYYCNARVPLRHYSNYYWGQGTQVTVSS: high polyreactivity
QVQLVESGGGLVQAGGSLRLSCAASGRTIYYNGMGWDRQAPGKERELVAAITSGGTTSYADSVKGRFTISRDNAKNTVYLQMNSLKPEDTAVYYCARVTDGVVYEYDYWGQGTQVTVSS: low polyreactivity
QVQLVESGVGLVQAGGSLRLSCAAYGSIFDGYAMGWYRPAPGKEREFVATITVSGGRSYYADSVKGSFTISRDNANNTVYLEMNSLKPEDTAVYYGNVDVFYYPHRYDYWGQGTQVTVSS: high polyreactivity
QVQLVESGGGLVQAGGSLRLSCAASGRTFYYNTMGWYRQAPGKERELVAAISWRTGSTYYADSVKGRFTISRDNAKNTVYLQMNSLKPEDTAVYYCAAVLFGYPRTIGTWYDRYYYWGQGTQVTVSS: high polyreactivity
QVQLVESGVGLVQAGGTLRLSCAASGFIFRKYGMGWYRQAPGKERELVAAIRFTGGSTRYADSVKGRFTISRDNAKNTVYLQMNSLIPEDTAVYYCNADRVYVRGRFTYDYWGQGTQVTVSS: low polyreactivity
QVQLVESGGGLVQAGGSLRLSCAASGRTFYGYAMGWYRQAPGKERELVAAITQRGVSTYADSVKGRFTISRDNAKNTVYLQMNSLKPEDTAVYYCAAEYYAYPYGDDYDYWGQGTQVTVSS: low polyreactivity
QVQLVESGGGLVQAGGSLRLSCAASGITIRRYAMGWYRQAPGKERELVAAITYSGGGSTYYADSVKGRFTISRDNAKNTVYLQMNSLKPEDTAVYYCAAGWYPWGYYSGYISYEYWGQGTQVTVSS: high polyreactivity
QVQLEESGGGLVQAGGSLRLSCAASGFTFRRYAMGWYRQAPGKERELVAAITRSGSSTYYADSVKGRFTISRDNAKNTVYLQMNSLKPEDTAVYYCARYHLRPTDGFDYWGQGTQVTVSS: high polyreactivity
QVQLVESGGGLVQAGGSLRLSCAASGIIFSPYAMGWYRQAPGKERELVAAISYSGGSTYYADSVKGRFTITRDNAKNTVYLQMNSLKPEDTAVYYCAVVYSYYLAVLGYWDYDYWGQGTQVTVSS: low polyreactivity
QDQLEESVGGLVQAGGSLRLSCAASGSTFSYYAMGWYRQATGKERELVAAISTLGSSTYYADSVKGRFTISRDNAKNTVNLQMNSLKPEDTAVYYCAVDQYKYDWFYDYYGYTYVYWGQGTQVTVSS: high polyreactivity

Please examine the following record next.
Lab note: "QVQLVESGGGLVQAGGSLRLSCAASGNIFDEYTMGWYRQAPWKERELVAAINSGGSTDYADSVKGRFTISRDNAKNTVYLQMNSLKPEDTAVYYCARDVWPTKIQQQPGYGRGEYWGQGTQVTVSS" gave polyreactivity (PSR sort gate) of low polyreactivity

====

assay: yeast display, Sf9 membrane polyspecificity reagent, FACS + sequencing; frameworks hold sequencing errors
Property label: polyreactivity (PSR sort gate)

A selection of reference data follows.
QGQLVESGGGLVQAGGSLRLSCAASGRTFYANAMGWYRQAPGKERELVAAISTGGDGTYYADSVKGRFTISRDNAKNTVYLQMNSLKPEDAAVYYCAVRHRASGILYDYWGQGTQVTVSS: low polyreactivity
QVQLVESGGGLVQEGRSLRLSCAASGLTFQYYAMGWYRPAPGKERELVAAISSGGDTYYADSVKGRFTISRDNAKNNVYFQMYSVKREDTAVYYCAARVVLYSRSTYYYWGQGTQVTVSS: high polyreactivity
QLQLVESCGVLVQAGGSLRLSCAASGRTHGNNAMGCYRQAPGKERELVAITYRGGSTYYADSVKGRFTISRDNAKNTVYLQMNSLKPEDTAVYYCNVDIISKVDTNKYEYWGQGTQVTVSS: low polyreactivity
QVQLVESGGGLVQAGGSLRLSCAASGSIFPKYAMGWYRQAPGKERELVAAITSSGGRTYYADSVKGRFSISRDNAKNTVYLQMNSLKPEDTAVYYCAARYRREAAYGFDYWGQGTQVTVSS: high polyreactivity

Lab note: "QVQLVESGGGLVQAGGSLRLSCAASGSTFTINAMGWYRQAPGKERELVAAISWSDVDTYYADSVKGRFTISGDTAKNTVYLQMNSLKPEDTAVYYCSAQFSYRYYTDEVGYLGQGTQVTVSS" gave polyreactivity (PSR sort gate) of high polyreactivity

Lab note: "QVQLVESGGGIVQAGGTLRLSCAPYGSNYYAMACYRQAPGKDRDFVAAITTRGGGTYYADSVKGRFTISRDNAQNTVYLQMFSLKPVDTAVYVCAAEDYRPRTYVYRYRYYYWGQGTQVTVSS" gave polyreactivity (PSR sort gate) of high polyreactivity
